Tested on: Trichoplusia ni
Assay: Feeding deterrent activity against freshly molted third-instar larval stage of Trichoplusia ni (cabbage looper), Trichoplusia ni at 50 ug/cm'2 after 3 to 5 hr by leaf disk choice bioassay
Assay type: functional
Please note: Y applies when Activity is 90% or greater, and N applies otherwise.

{"Compound": "COc1ccc(O)cc1 [MEQUINOL]", "Class name": "N"}
{"Compound": "CCCCCOc1cccc(OCCC)c1 [1-propoxy-3-pentoxybenzene]", "Class name": "Y"}
{"Compound": "CCCOc1cccc(OC)c1 [1-methoxy-3-propoxybenzene]", "Class name": "N"}
{"Compound": "CCCOc1cccc(O)c1 [1-hydroxy-3-propoxybenzene]", "Class name": "N"}
{"Compound": "CCCOCC[C@@H]1CC=C[C@@H]1OCCC (racemic)", "Class name": "N"}

----------
Listing: Activity of selected compounds
Tested on: Trichoplusia ni
Assay: Feeding deterrent activity against freshly molted third-instar larval stage of Trichoplusia ni (cabbage looper), Trichoplusia ni at 50 ug/cm'2 after 3 to 5 hr by leaf disk choice bioassay
Assay type: functional

{"Compound": "C=CCOc1ccc(OCC)cc1 [1-allyloxy-4-ethoxybenzene]", "Readout units": "%", "Activity": 82.4}
{"Compound": "CCCOc1ccc(OCCC(C)C)cc1 [1-isopentyloxy-4-propoxybenzene]", "Readout units": "%", "Activity": 100}
{"Compound": "COc1cccc(OC)c1 [1,3-DIMETHOXYBENZENE]", "Readout units": "%", "Activity": 20.4}
{"Compound": "COc1ccc(OCCC(C)C)cc1 [1-isopentyloxy-4-methoxybenzene]", "Readout units": "%", "Activity": 100}
{"Compound": "CCOc1ccccc1OC [1-methoxy-2-ethoxybenzene]", "Readout units": "%", "Activity": 23.5}
{"Compound": "COc1cccc(OCCC(C)C)c1 [1-isopentyloxy-3-methoxybenzene]", "Readout units": "%", "Activity": 82.6}

----------
System: Trichoplusia ni
Test: Feeding deterrent activity against freshly molted third-instar larval stage of Trichoplusia ni (cabbage looper), Trichoplusia ni at 50 ug/cm'2 after 3 to 5 hr by leaf disk choice bioassay
Assay type: functional
The following compounds are listed with their measured Activity values.

{"Compound": "CCCOc1ccc(O)cc1 [1-hydroxy-4-propoxybenzene]", "Readout units": "%", "Activity": -28}
{"Compound": "CCCCCOc1ccc(OC)cc1", "Readout units": "%", "Activity": 80.2}
{"Compound": "C=CCOc1ccc(OCCC(C)C)cc1", "Readout units": "%", "Activity": 75.1}
{"Compound": "CC(C)CCOc1ccc(O)cc1 [1-hydroxy-4-isopentoxybenzene]", "Readout units": "%", "Activity": 29.5}
{"Compound": "CCCCCOc1ccccc1OCCC", "Readout units": "%", "Activity": 100}
{"Compound": "CCCCOc1ccccc1OCCCC", "Readout units": "%", "Activity": 56.4}
{"Compound": "CCCCOc1cccc(OC)c1", "Readout units": "%", "Activity": 84.1}
{"Compound": "CCOc1ccc(OCC)cc1", "Readout units": "%", "Activity": 80.8}
{"Compound": "CC(C)CCOc1cccc(OCCC(C)C)c1", "Readout units": "%", "Activity": -12.2}
{"Compound": "CCCOc1ccc(OC)cc1", "Readout units": "%", "Activity": 53.4}
{"Compound": "CCCCOc1ccccc1OCCC", "Readout units": "%", "Activity": 100}

----------
Tested on: Trichoplusia ni
Test: Feeding deterrent activity against freshly molted third-instar larval stage of Trichoplusia ni (cabbage looper), Trichoplusia ni at 50 ug/cm'2 after 3 to 5 hr by leaf disk choice bioassay
Format: functional
Rule: Activity below 50% gives Condition met. Equal to or above 50% gives Condition not met.

{"Molecule": "CCCOc1ccccc1OCC", "Class name": "Condition not met"}
{"Molecule": "CCCOc1cccc(OCCC(C)C)c1", "Class name": "Condition not met"}
{"Molecule": "CCCCCOc1ccccc1OCCC(C)C", "Class name": "Condition not met"}
{"Molecule": "CCOc1cccc(OC)c1", "Class name": "Condition not met"}
{"Molecule": "CCCCCOc1cccc(OCC)c1", "Class name": "Condition not met"}
{"Molecule": "CCCCOc1ccc(OC)cc1", "Class name": "Condition not met"}
{"Molecule": "CCCOc1cccc(OCCC)c1", "Class name": "Condition not met"}
{"Molecule": "CCCCOc1ccccc1O [1-hydroxy-2-butoxybenzene]", "Class name": "Condition met"}
{"Molecule": "C=CCOc1ccccc1O [1-hydroxy-2-allyloxybenzene]", "Class name": "Condition met"}
{"Molecule": "CCOc1ccc(OC)cc1", "Class name": "Condition not met"}
{"Molecule": "CCCCCOc1ccc(OCC)cc1", "Class name": "Condition not met"}
{"Molecule": "CCCCCOc1ccc(OCCC)cc1", "Class name": "Condition not met"}
{"Molecule": "COc1ccccc1OCCC(C)C", "Class name": "Condition not met"}
{"Molecule": "CCOc1ccc(O)cc1 [1-hydroxy-4-ethoxybenzene]", "Class name": "Condition met"}
{"Molecule": "OCC[C@@H]1CC=C[C@@H]1O (racemic)", "Class name": "Condition met"}
{"Molecule": "C=CCOc1ccccc1OCCCCC", "Class name": "Condition not met"}
{"Molecule": "C=CCOc1ccccc1OCC", "Class name": "Condition not met"}
{"Molecule": "CCCOc1ccc(OCC)cc1", "Class name": "Condition not met"}
{"Molecule": "CCCCCOc1cccc(OC)c1", "Class name": "Condition not met"}
{"Molecule": "CCOc1cccc(O)c1 [1-hydroxy-3-ethoxybenzene]", "Class name": "Condition met"}
{"Molecule": "CCCCOc1ccccc1OCC", "Class name": "Condition not met"}
{"Molecule": "CCCOc1ccccc1OCCC(C)C", "Class name": "Condition not met"}
{"Molecule": "CCOc1ccc(OCCC(C)C)cc1", "Class name": "Condition not met"}
